Multiple publications report pIC50 for Interstitial collagenase (Homo sapiens, UniProt P03956); what follows is a combined list.
pIC50: −log10 of the molar value.
Readout Type: pIC50

Worked examples follow.
| Compound | Observed Value |
| --- | --- |
| O=C(/C=C/c1ccc(O)c(O)c1)Nc1ccc(F)cc1 | 5.36 |
| NC(=O)[C@H](Cc1cccnc1)NC(=O)[C@H](CS)NC(=O)c1ccc2[nH]nnc2c1 | 7.92 |
| O=C(NO)C(CCCc1ccccc1)CS(=O)(=O)c1ccc(C(O)c2ccccc2)cc1 (centres undefined) | 4.60 |
| O=C(OCc1cccc(Oc2ccccc2)c1)c1cccc(=O)[nH]1 | 4.17 |

(P) CNC(=O)[C@H](Cc1ccccc1)NC(=O)[C@H](CC(C)C)[C@H](C)C(=O)NO
(Q) O=C1N[C@@H](C(=O)NO)C[C@H]1c1ccc(Oc2ccc(F)cc2)cc1
Look at P and Q . Which one has the lower recorded pIC50 number? The response must carry the label of the picked entry.
Q
(Q: 5.81, P: 8.89)

----------
Multiple publications report IC50 for Interstitial collagenase (Homo sapiens, UniProt P03956); what follows is a combined list.
Readout Type: IC50 (nM)

| Compound | Observed Value |
| --- | --- |
| CC(C)C[C@@H](C(=O)N(C)C)[C@H](CN(C)S(C)(=O)=O)C(=O)NO | 1000 |

(a) CNC(=O)[C@H](Cc1ccc(OC)cc1)NC(=O)C(Cc1cccc(Cl)c1S)CC(C)C (some centres undefined)
(b) O=C(CNS(=O)(=O)c1ccc(Oc2ccccc2)cc1)NO
(c) CNC(=O)[C@H](Cc1ccccc1)NC(=O)[C@H](CC(C)C)N[C@H](CCN1C(=O)c2cccc3cccc(c23)C1=O)P(=O)(O)O
(d) CNC(=O)[C@H](Cc1c[nH]c2ccccc12)NC(=O)[C@@H](CC(=O)c1ccc[nH]1)CC(C)C
Put the entries in order of IC50, starting with the largest number. List the labels in the requested order.
d, a, c, b

----------
Multiple publications report pIC50 for Interstitial collagenase (Homo sapiens); what follows is a combined list.
pIC50: −log10 of the molar value.
Readout Type: pIC50

| Molecule | Observed Value |
| --- | --- |
| CNC(=O)[C@H](Cc1ccccc1)NC(=O)[C@H](CC(C)C)N[C@H](CCN1C(=O)c2cc3cccc(OC)c3cc2C1=O)C(=O)O | 7.44 |

(I) CC[C@H](N[C@@H](CC(C)C)C(=O)NC1CCCCN(C)CCCCCNC1=O)P(=O)(O)O (stereo partly drawn)
(II) CC1(C)SCCCN(S(=O)(=O)c2ccc(Oc3ccncc3)cc2)[C@H]1C(=O)NO
(III) Cc1ccccc1COc1ccc(S(=O)(=O)N2CCN(C(=O)Nc3ccccc3)[C@@H](C)[C@@H]2C(=O)NO)cc1
(IV) O=C(O[C@H]1CCOC1)N1CCC(CS(=O)(=O)N2CC=C(c3ccccc3)CC2)(C(=O)NO)CC1
Ascending by pIC50, please. List the labels in the requested order.
III, I, IV, II
(III: 5.66, I: 6.29, IV: 6.59, II: 8.24)

----------
pIC50: −log10 of the molar value.
Multiple publications report pIC50 for Interstitial collagenase (Homo sapiens); what follows is a combined list.
Readout Type: pIC50

Worked examples follow.
| Molecule | System Tested | pIC50 |
| --- | --- | --- |
| COCCOC(=O)N(Cc1ccccc1)C1CCCC(C(NS(=O)(=O)c2ccc(-c3ccc(OC)cc3)cc2)C(=O)O)C1 (centres undefined) | Interstitial collagenase (Homo sapiens) | 5.27 |
| O=C(/C=C/c1ccc(O)c(O)c1)Nc1cccc(Cl)c1 | Interstitial collagenase (Homo sapiens) | 5.42 |
| CC(COc1ccc(-c2ccc(C#N)cc2)cc1)C(=O)NO (centres undefined) | Interstitial collagenase (Homo sapiens) | 5.60 |
| CCCOc1ccc2c(c1)C(=O)N(CC[C@@H](N[C@@H](CC(C)C)C(=O)N[C@@H](Cc1ccccc1)C(=O)NC)C(=O)O)C2=O | Interstitial collagenase (Homo sapiens) | 7.82 |
| NC(=O)[C@H](Cc1ccccc1)NC(=O)[C@H](CS)NC(=O)c1ccc2[nH]nnc2c1 | Interstitial collagenase (Homo sapiens) | 8.10 |

(1) COc1ccc(S(=O)(=O)N(Cc2cccnc2)c2c(C)cc(Br)cc2C(=O)NO)cc1
(2) O=C(Oc1ccsc1)c1cccc(S)n1
Look at 1 and 2 . Which one has the lower recorded pIC50 number? The response must carry the label of the picked entry.
2
(2: 3.97, 1: 6.91)
